- Tested on: MCF7
- Assay Overview: NCI tumour cell line growth inhibition, 48 h
Active and inactive are the calls of the source. Cut-off read from the data, not from the text of the source: active = GI50 up to about 1.1 µM and inactive = higher.
Endpoint Name: GI50

Sample answers from the record:
- CS(=O)(=O)OCCn1c(=O)n(CCOS(C)(=O)=O)c(=O)n(CCOS(C)(=O)=O)c1=O: > 100 µM (inactive)
- Nc1nc(Cl)cc(NCC2(CO)CC(CCc3ccccc3)C2)n1 (stereo not given): 9.16 µM (inactive)
- Nc1ncn(C2OC(COP(=O)(O)O)C(O)C2O)c(=O)n1 (stereo not given): > 71 µM (inactive)
- Cc1ccc(C2SC(=N)Nc3c2c(C)nn3C(=O)c2ccncc2)cc1 (stereo not given): > 10 µM (inactive)
- COc1ccc2cc(CNCCCCCCCCCCCCNCc3ccc4cc(OC)ccc4c3)ccc2c1: 17.1 µM (inactive)
- O=[N+]([O-])c1cc(Cl)ccc1Sc1ccccc1: > 100 µM (inactive)

Given the compound `Cc1nc2ccc(Cl)cc2c2c1CCN2c1ccccc1` , what is its reported GI50?
15.1 µM (inactive)

Given the compound `C=CC[C@H]1[C@H](O[Si](C)(C)C(C)(C)C)C=CC(=O)[C@@H]1CC(=O)N(Cc1ccccc1)Cc1ccccc1` , what is its reported GI50?
19.5 µM (inactive)

Given the compound COc1ccc(S(=O)(=O)N2C(=O)CCC2C(=O)NC(N)=O)cc1 (stereo not given) , what is its reported GI50?
> 100 µM (inactive)

Given the compound COc1ccc(OC)c(CC2CCc3nc(N)nc(N)c3C2)c1 (stereo not given) , what is its reported GI50?
0.509 µM (active)
